Assembled from different publications: Ki for Vasopressin V1b receptor (Homo sapiens, UniProt P47901).
- TARGET: Vasopressin V1b receptor (Homo sapiens, UniProt P47901)
- Sequence (P47901 whole entry): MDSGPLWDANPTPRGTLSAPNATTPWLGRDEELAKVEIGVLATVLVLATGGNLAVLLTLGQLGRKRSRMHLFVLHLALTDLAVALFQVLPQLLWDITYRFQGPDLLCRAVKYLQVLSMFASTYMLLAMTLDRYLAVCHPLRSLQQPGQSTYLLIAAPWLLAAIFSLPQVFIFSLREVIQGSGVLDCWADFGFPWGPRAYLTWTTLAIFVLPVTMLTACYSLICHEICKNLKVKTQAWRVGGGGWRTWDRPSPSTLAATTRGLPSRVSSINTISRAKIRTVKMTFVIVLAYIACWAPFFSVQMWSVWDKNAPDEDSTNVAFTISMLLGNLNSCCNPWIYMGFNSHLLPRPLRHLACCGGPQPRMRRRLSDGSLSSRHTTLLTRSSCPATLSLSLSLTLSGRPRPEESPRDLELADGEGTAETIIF
QUANTITY_NAME: Ki (µM)

(I) COc1cc(C)c(S(=O)(=O)N[C@@H](Cc2ccccc2)C(=O)N2CCCN(C)CC2)c(C)c1C
(II) CCOc1ccccc1C1(N2CCN(c3ccncc3)CC2)C(=O)N(S(=O)(=O)c2ccc(OC)cc2OC)c2ccc(C#N)cc21 (stereo unspecified)
(III) COc1ccc(S(=O)(=O)N2C(=O)[C@@](c3ccc(CN4CCN(C)CC4)cc3OC)(N3CCC[C@H]3C(=O)N(C)C)c3cc(Cl)ccc32)cc1
Please put the 3 compounds above in a list ordered by falling Ki. Your answer should be the labels, listed in the requested order.
I, II, III

###

Assembled from different publications: Ki for Vasopressin V1b receptor (Homo sapiens).
- TARGET: Vasopressin V1b receptor (Homo sapiens)
- Sequence (P47901 whole entry): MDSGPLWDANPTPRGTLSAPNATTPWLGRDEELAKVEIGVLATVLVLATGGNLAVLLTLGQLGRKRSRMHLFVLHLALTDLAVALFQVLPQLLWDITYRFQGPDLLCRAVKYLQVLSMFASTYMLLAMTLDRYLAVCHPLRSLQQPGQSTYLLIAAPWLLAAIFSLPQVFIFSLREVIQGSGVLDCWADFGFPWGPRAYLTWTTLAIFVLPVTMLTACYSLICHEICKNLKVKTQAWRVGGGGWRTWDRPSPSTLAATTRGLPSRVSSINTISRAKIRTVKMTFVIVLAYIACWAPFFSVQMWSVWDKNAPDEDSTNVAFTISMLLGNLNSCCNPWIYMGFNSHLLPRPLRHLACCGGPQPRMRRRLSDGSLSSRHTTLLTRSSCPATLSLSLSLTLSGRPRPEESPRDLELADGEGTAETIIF
QUANTITY_NAME: Ki (µM)

(1) COc1ccc(S(=O)(=O)N2C(=O)C(c3ccccc3OC)(N3CCN(c4cccnc4)CC3)c3cc(Cl)ccc32)cc1 (configuration not stated)
(2) COc1ccc(S(=O)(=O)N2C(=O)C(c3cccnc3OC)(N3CCN(C)C(=O)[C@H]3C)c3cc(Cl)ccc32)c(OC)c1 (some centres not stated)
(3) COc1cc(C)c(S(=O)(=O)N[C@@H](Cc2ccccc2)C(=O)NC(Cc2ccc3c(N)nccc3c2)C(=O)N2CCCCC2)c(C)c1C (some centres not stated)
(4) COc1ccc(S(=O)(=O)N2C(=O)[C@@](c3cc(CN4CCN(C)CC4)ccc3OC)(N3CCC[C@H]3c3ncco3)c3cc(Cl)ccc32)cc1
Please put the 4 compounds above in a list ordered by falling Ki. Your answer should be the labels, listed in the requested order.
1, 3, 2, 4
(1: 0.104 µM, 3: 0.063 µM, 2: 0.041 µM, 4: 0.0013 µM)

(A) COc1ccc(S(=O)(=O)N2C(=O)C(c3cccnc3OC)(N3CCNC(=O)C3)c3cc(Cl)ccc32)c(OC)c1 (configuration not stated)
(B) COc1cc(C)c(S(=O)(=O)N[C@@H](Cc2ccccc2)C(=O)NCCCN2CCC(C)CC2)c(C)c1C
Given A and B , report the one with the higher recorded Ki. Answer format: the label of the selected item.
B
(B: 2.5 µM, A: 1.34 µM)

###

Target chain: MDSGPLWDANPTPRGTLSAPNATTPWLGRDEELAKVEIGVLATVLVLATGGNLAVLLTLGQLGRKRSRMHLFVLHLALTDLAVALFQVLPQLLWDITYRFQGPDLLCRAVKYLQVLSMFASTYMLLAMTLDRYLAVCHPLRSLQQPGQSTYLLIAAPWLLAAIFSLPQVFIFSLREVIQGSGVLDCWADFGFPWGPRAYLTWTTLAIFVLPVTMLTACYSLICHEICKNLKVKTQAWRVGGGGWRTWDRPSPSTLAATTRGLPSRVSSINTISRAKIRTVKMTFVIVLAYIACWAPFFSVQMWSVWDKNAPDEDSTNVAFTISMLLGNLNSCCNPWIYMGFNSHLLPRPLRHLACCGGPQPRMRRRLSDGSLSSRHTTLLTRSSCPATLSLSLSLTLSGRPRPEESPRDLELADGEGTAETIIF
Assembled from different publications: Ki for the protein given by its sequence.
QUANTITY_NAME: Ki (nM)

Below, 2 compounds whose answers are already recorded.
COMPOUND	TARGET	Ki / nM
COc1ccc(S(=O)(=O)N2C(=O)C(c3cc(OC)ccc3OC)(N3CCN(c4ccncc4)CC3)c3cc(C#N)ccc32)c(OC)c1 (stereo unspecified)	the protein given by its sequence	13
COc1cc(C)c(S(=O)(=O)N[C@@H](Cc2ccccc2)C(=O)NCCCN2CCOCC2)c(C)c1C	the protein given by its sequence	10000

(1) COc1ncccc1C1(N2CCN(c3cccnc3)CC2)C(=O)N(S(=O)(=O)c2cccc3cccnc23)c2ccc(C#N)cc21 (stereo unspecified)
(2) CNCc1ccc(OC)c([C@@]2(N3CCC[C@H]3c3ncco3)C(=O)N(S(=O)(=O)c3ccc(OC)cc3)c3ccc(Cl)cc32)c1
Given 1 and 2 , report the one with the higher recorded Ki. Answer format: the label of the selected item.
1

###

Assembled from different publications: Ki for the protein given by its sequence.
Target protein (sequence): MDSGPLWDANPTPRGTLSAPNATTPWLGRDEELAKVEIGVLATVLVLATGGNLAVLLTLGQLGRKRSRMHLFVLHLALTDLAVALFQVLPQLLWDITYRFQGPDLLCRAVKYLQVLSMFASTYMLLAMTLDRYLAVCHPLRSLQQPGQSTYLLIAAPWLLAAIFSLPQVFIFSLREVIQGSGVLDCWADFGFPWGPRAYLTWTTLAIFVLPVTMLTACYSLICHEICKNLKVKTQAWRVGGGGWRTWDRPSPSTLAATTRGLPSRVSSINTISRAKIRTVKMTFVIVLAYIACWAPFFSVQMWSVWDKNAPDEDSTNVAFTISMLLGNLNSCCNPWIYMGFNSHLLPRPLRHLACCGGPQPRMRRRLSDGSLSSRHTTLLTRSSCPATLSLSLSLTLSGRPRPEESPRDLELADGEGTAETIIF

Below, 4 compounds whose answers are already recorded.
COMPOUND	Ki
CCN(CC)c1ccc2c(-c3ccc(S(=O)(=O)[O-])cc3S(=O)(=O)NCCOCCOCCOCCn3cc(CNC(=O)CCC(=O)NC4CCCN(C(=O)c5ccc(NC(=O)c6ccccc6-c6ccccc6)cc5)c5ccccc54)nn3)c3ccc(=[N+](CC)CC)cc-3oc2c1 (configuration not stated)	> 10 µM
CC(C)C[C@@H]1C(=O)N[C@H](C2Cc3ccccc3C2)C(=O)N1[C@@H](C(=O)NC(C)C)c1ccc(F)cc1F	> 6.31 µM
CC(C)C[C@@H]1C(=O)N[C@H](C2Cc3ccccc3C2)C(=O)N1[C@@H](C(=O)NC(C)C)c1ccc(F)cc1	> 6.31 µM
C[C@@H](NC(=O)[C@@H](CC(=O)N1CCC(N2CCCCC2)CC1)N1C(=O)[C@@H](N2C(=O)OC[C@@H]2c2ccccc2)[C@H]1/C=C/c1cccc(I)c1)c1ccccc1	> 1 µM

Item CC(C)C[C@@H]1C(=O)N[C@H](C2Cc3ccccc3C2)C(=O)N1[C@@H](C(=O)NC(C)C)c1ccc2occc2c1 with the protein given by its sequence - Ki?
> 6.31 µM

Another compound: CCN(CC)c1ccc2c(-c3ccc(S(=O)(=O)NCCOCCOCCOCCn4cc(CNC(=O)CCC(=O)NC5CCCN(C(=O)c6ccc(NC(=O)c7ccccc7-c7ccccc7)cc6)c6ccccc65)nn4)cc3S(=O)(=O)[O-])c3ccc(=[N+](CC)CC)cc-3oc2c1 (configuration not stated)
> 10 µM

Another compound: CCN(CC)c1ccc2c(-c3ccc(S(=O)(=O)NCCOCCOCCOCCn4cc(CNC(=O)CCC(=O)NC5CCCN(C(=O)c6ccc(NC(=O)c7ccccc7C)cc6)c6ccccc65)nn4)cc3S(=O)(=O)[O-])c3ccc(=[N+](CC)CC)cc-3oc2c1 (configuration not stated)
> 10 µM

###

Target protein (sequence): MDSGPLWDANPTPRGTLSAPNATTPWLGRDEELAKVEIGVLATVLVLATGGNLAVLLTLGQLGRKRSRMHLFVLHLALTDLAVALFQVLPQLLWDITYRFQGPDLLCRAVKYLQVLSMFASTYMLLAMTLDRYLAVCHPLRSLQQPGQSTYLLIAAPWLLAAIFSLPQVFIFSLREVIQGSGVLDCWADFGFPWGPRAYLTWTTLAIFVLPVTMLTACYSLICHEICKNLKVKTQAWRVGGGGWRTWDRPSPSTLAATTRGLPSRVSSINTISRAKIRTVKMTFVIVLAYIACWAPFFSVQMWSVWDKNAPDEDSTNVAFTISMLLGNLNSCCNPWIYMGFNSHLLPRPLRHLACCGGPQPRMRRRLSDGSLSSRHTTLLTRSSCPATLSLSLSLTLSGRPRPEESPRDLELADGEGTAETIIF
pKi: −log10 of the molar value.
Assembled from different publications: pKi for the protein given by its sequence.

Below, 2 compounds whose answers are already recorded.
COMPOUND	pKi
CC[C@H](C)[C@@H]1C(=O)N[C@H](C2Cc3ccccc3C2)C(=O)N1[C@@H](C(=O)N1CCOCC1)c1ccc(C)nc1C	< 5.10
COc1cc(C)c(S(=O)(=O)N[C@@H](Cc2ccccc2)C(=O)N[C@H](Cc2ccccc2)C(=O)N2CCCCC2)c(C)c1C	< 5.00

Item CCN(CC)c1ccc2c(-c3ccc(S(=O)(=O)[O-])cc3S(=O)(=O)NCCOCCOCCOCCn3cc(CNC(=O)CCC(=O)NC4CCCN(C(=O)c5ccc(NC(=O)c6ccccc6C)cc5)c5ccccc54)nn3)c3ccc(=[N+](CC)CC)cc-3oc2c1 (stereo not drawn) with the protein given by its sequence - pKi?
< 5.00
